In this section, each of the variants is paired with its reported protein stability index.
B1: DYRK1B (parent)
chain: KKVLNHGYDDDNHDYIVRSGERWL

- Variants of: B1
- EXPERIMENT_SUMMARY: protein stability index of a GFP-peptide fusion (GPS, HEK-293T) (PSI 1-6); higher = more stable;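 further: lentivirally expressed fusions sorted by FACS into six bins by GFP to DsRed ratio, PSI derived from sequencing read proportions per bin multiplied by bin number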
- CONDITION_INFO: c terminus: a fixed tail appended
# output: bare number, no unit

Worked set:
SEQUENCE_DATA	protein stability index
KKVLNHGYDDDNVDYIVRSGERWL [H13V]	2.96
KKVLNGGYDDDNHDYIVRSGERWL [H6G]	3.26
KKVLNHGYDDDNHDYIVRSGERWW [L24W]	2.85
KKVLNHGYDDDNHDYIVRSLERWL [G20L]	1.88
KKVLNHGYDDDNHDYIVRSGQRWL [E21Q]	3.05

Consider the record given below.
Looking up KKVLNHGYDDDNDDYIVRSGERWL [H13D] , I found its protein stability index recorded as 3.73

Recorded values, source the supplement of paper PMC10567573.
